All figures here come from patent US12507703B2.

# System: lipase
# assay_procedure: Lipase/lipolysis assay (EnzChek Lipase Substrate, quenched BODIPY-fatty acid conjugate) on stored human milk; also: test concentration or dose not given here
experimental_endpoint: Lipase (RFU)
// return numeric value only (unit: RFU, not printed)

Some entries whose results are on file:
stdin: For C[C@]12CC[C@@H](O)C[C@H]1CC[C@@H]1[C@@H]2[C@@H](O)C[C@@]2(C)[C@H]1CC[C@]2(O)C(=O)CO [Tetrahydrocortisol] , what is its reported Lipase (RFU)?
stdout: 1127.321

stdin: For C[C@H](CCC(=O)O)[C@H]1CC[C@H]2[C@@H]3C(=O)C[C@@H]4C[C@H](O)CC[C@]4(C)[C@H]3C[C@H](O)[C@]12C , what is its reported Lipase (RFU)?
stdout: 890.8412

stdin: For OC[C@H]1O[C@@H](Oc2cc(O)cc(/C=C/c3ccc(O)c(O)c3)c2)[C@H](O)[C@@H](O)[C@@H]1O , what is its reported Lipase (RFU)?
stdout: 1052.825

stdin: For OC[C@H]1O[C@@H]2O[C@H]3[C@H](O)[C@@H](O)[C@@H](O[C@H]4[C@H](O)[C@@H](O)[C@@H](O[C@H]5[C@H](O)[C@@H](O)[C@@H](O[C@H]6[C@H](O)[C@@H](O)[C@@H](O[C@H]7[C@H](O)[C@@H](O)[C@@H](O[C@H]8[C@H](O)[C@@H](O)[C@@H](O[C@H]1[C@H](O)[C@H]2O)O[C@@H]8CO)O[C@@H]7CO)O[C@@H]6CO)O[C@@H]5CO)O[C@@H]4CO)O[C@@H]3CO , what is its reported Lipase (RFU)?
stdout: 886.2621

stdin: For CC(C)[C@@H](C)/C=C/[C@@H](C)[C@H]1CC[C@H]2[C@@H]3CC=C4C[C@@H](O)CC[C@]4(C)[C@H]3CC[C@]12C , what is its reported Lipase (RFU)?
stdout: 931.4963

Turning to the following molecule.
stdin: For CCCCCCCC(=O)O[C@H](CC(=O)[O-])C[N+](C)(C)C , what is its reported Lipase (RFU)?
stdout: 1071.191
